Measured values drawn from patent US20250154202A1 for this set.

- assayed system: T1, biotinylated NbALFA (NanoTag) (biotinylated (site not stated))
- T1 construct: Bought from NanoTag and captured on the SPR chip through biotin; also called NbALFA-nanobody; Nanobody
- T1 sequence (VHH, as listed by the source): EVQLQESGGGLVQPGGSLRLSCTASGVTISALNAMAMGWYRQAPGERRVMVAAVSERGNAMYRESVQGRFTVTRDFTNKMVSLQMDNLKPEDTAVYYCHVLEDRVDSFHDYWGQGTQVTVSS
- measurement description: SPR, Biacore T200, biotinylated NbALFA captured on Biotin CAPture chip, peptide as analyte, multi-cycle kinetics, 1:1 model, 25 C
pKd: −log10 of the molar value. Bridge positions count the residues as written; N and C are the ends.
outcome measure: pKd

binder	reading
Ac-SRLEEELRKRLTE-NH2 (lactam 9-13; SMILES CC(=O)N[C@@H](CO)C(=O)N[C@@H](CCCNC(=N)N)C(=O)N[C@@H](CC(C)C)C(=O)N[C@@H](CCC(=O)O)C(=O)N[C@@H](CCC(=O)O)C(=O)N[C@@H](CCC(=O)O)C(=O)N[C@@H](CC(C)C)C(=O)N[C@@H](CCCNC(=N)N)C(=O)N[C@H]1CCCCNC(=O)CC[C@@H](C(N)=O)NC(=O)[C@H]([C@@H](C)O)NC(=O)[C@H](CC(C)C)NC(=O)[C@H](CCCNC(=N)N)NC1=O, Cyclic ALFA tag; also called SD15193) [Ac-Ser-Arg-Leu-Glu-Glu-Glu-Leu-Arg-(cyclo9)Lys-Arg-Leu-Thr-(cyclo13)Glu-NH2]	10.25
Ac-PSRLEEELKRRLTE-NH2 (lactam 5-9; SMILES CC(=O)N1CCC[C@H]1C(=O)N[C@@H](CO)C(=O)N[C@@H](CCCNC(=N)N)C(=O)N[C@@H](CC(C)C)C(=O)N[C@H]1CCC(=O)NCCCC[C@@H](C(=O)N[C@@H](CCCNC(=N)N)C(=O)N[C@@H](CCCNC(=N)N)C(=O)N[C@@H](CC(C)C)C(=O)N[C@H](C(=O)N[C@@H](CCC(=O)O)C(N)=O)[C@@H](C)O)NC(=O)[C@H](CC(C)C)NC(=O)[C@H](CCC(=O)O)NC(=O)[C@H](CCC(=O)O)NC1=O, Cyclic ALFA tag; also called SD15806) [Ac-Pro-Ser-Arg-Leu-(cyclo5)Glu-Glu-Glu-Leu-(cyclo9)Lys-Arg-Arg-Leu-Thr-Glu-NH2]	8.84
